Test: protein stability index of a GFP-peptide fusion (yeast GPS) (PSI 1-4); higher = more stable; sorted into four equal gates, so the index is relative within each strain
Details: doa10∆
I would appreciate it if you labelled entries Met when protein stability index is 3 or higher, otherwise Not met.

[[record]]
query_sequence = "KNYLKNYILNFKQSNSE [CDC53]"
label_class = "Not met"

[[record]]
query_sequence = "VHTANFSERGSNTRTMT [MED2]"
label_class = "Met"

[[record]]
query_sequence = "MASYMLNSFAFELCSLG [YJR042W/NUP85]"
label_class = "Not met"

[[record]]
query_sequence = "PSLKFKPKAVARKSKEE [RPC53]"
label_class = "Not met"

[[record]]
query_sequence = "TELVDGRENFVYANNPE [SIR3]"
label_class = "Met"

[[record]]
query_sequence = "TIRLWECGTGTTIHTFN [RPN14]"
label_class = "Not met"

[[record]]
query_sequence = "CVRVQLIKNGKKVTAFV [RPS23A]"
label_class = "Not met"

[[record]]
query_sequence = "GRLNTLVISLAATNETF [IRR1]"
label_class = "Not met"

[[record]]
query_sequence = "NNQSKEKADYEDEMMHE [RPN12]"
label_class = "Not met"

[[record]]
query_sequence = "TAVNGIDTDLFGAPNNP [YGL172W/NUP49]"
label_class = "Met"

[[record]]
query_sequence = "PESIRQKKARTILQHLS [PRP8]"
label_class = "Not met"

[[record]]
query_sequence = "PSCVYNLIGVITHQGAN [UBP6]"
label_class = "Not met"

[[record]]
query_sequence = "SQTPSFNTNSSFTPSTV [YOR098C/NUP1]"
label_class = "Not met"

[[record]]
query_sequence = "GDQFLRYVNLLGVTYSS [PRE4]"
label_class = "Not met"

[[record]]
query_sequence = "EIKDGRSLFLRNRGKIH [YMR153W/NUP53]"
label_class = "Not met"

[[record]]
query_sequence = "QAQAQAQAAQAAQAQAQ [GAL11]"
label_class = "Not met"

[[record]]
query_sequence = "AKPDARTQAGDIVSIDI [MTW1]"
label_class = "Met"

[[record]]
query_sequence = "QQENSKSGKRKPNIILD [RPC31]"
label_class = "Not met"

[[record]]
query_sequence = "ENPTDNFIIWINSIDTT [GRR1]"
label_class = "Not met"

[[record]]
query_sequence = "LPSEERIQKIISKRKEE [YIL149C/MLP2]"
label_class = "Not met"

[[record]]
query_sequence = "DLMDDMSDISDLDDLGF [RPN3]"
label_class = "Not met"

[[record]]
query_sequence = "VLKVYSMINNSNQAVGQ [SRB8]"
label_class = "Not met"

[[record]]
query_sequence = "KEALQNNIFKEFTSKIG [SMC1]"
label_class = "Not met"

[[record]]
query_sequence = "KNGNEYNEFLYSKAGRE [QCR8]"
label_class = "Not met"

[[record]]
query_sequence = "TLNPDLFLYKELVKAHL [RPC82]"
label_class = "Not met"

[[record]]
query_sequence = "LSIQYMIQKVMEYLKSS [RPN5]"
label_class = "Not met"

[[record]]
query_sequence = "ICNTLNIAKDLKWKKGI [SMC1]"
label_class = "Not met"

[[record]]
query_sequence = "LSATQFTQPALTLMEKA [FAS1]"
label_class = "Not met"

[[record]]
query_sequence = "DYAQLDHLVSSIPMGGQ [ARP9]"
label_class = "Not met"

[[record]]
query_sequence = "SLNEVGTLKVILNLYSS [YML103C/NUP188]"
label_class = "Not met"

[[record]]
query_sequence = "LKNCKISNINIPISSET [SMC1]"
label_class = "Not met"

[[record]]
query_sequence = "TFLLNNKNIDIGLLNKS [RPN2]"
label_class = "Met"

[[record]]
query_sequence = "KIEGCISQVSSIHAIGS [RPB7]"
label_class = "Not met"

[[record]]
query_sequence = "ELMKLDGTEYVLSSVRE [MED6]"
label_class = "Met"

[[record]]
query_sequence = "QLIKQSIKNNVAMCFVI [SNU114]"
label_class = "Not met"

[[record]]
query_sequence = "QKTQELNAKYQSLGLDD [ISW2]"
label_class = "Met"

[[record]]
query_sequence = "PSLELSAEYLQMSLEAN [YJR042W/NUP85]"
label_class = "Not met"

[[record]]
query_sequence = "DFYVVMNRPGARVTRRK [RPL11A]"
label_class = "Met"

[[record]]
query_sequence = "DNKIDIYQIHIPYAAKL [RPB2]"
label_class = "Met"

[[record]]
query_sequence = "LKRFPKMSVTCNAQPIT [BRR2]"
label_class = "Not met"

[[record]]
query_sequence = "KREGKTRLLNIVMQLRK [ISW2]"
label_class = "Not met"

[[record]]
query_sequence = "DISATQLPKQLWRNFCR [ITC1]"
label_class = "Not met"

[[record]]
query_sequence = "KTLCARAVANRTDATFI [RPT1]"
label_class = "Not met"

[[record]]
query_sequence = "SLKCTDPYELKGEVVLV [ITC1]"
label_class = "Not met"

[[record]]
query_sequence = "PSANNSSSIKSTGPTGA [RRP4]"
label_class = "Met"

[[record]]
query_sequence = "KMNNKPERFMVFQLPTR [RPC53]"
label_class = "Not met"

